- Test system: SF-539 CNS
- Assay remarks: NCI tumour cell line growth inhibition, 48 h; in the data active = GI50 below about 0.43 µM; inactive = the rest
Outcomes: active, inactive

{"Compound": "CCCCCCCCCCCCSC1=C(Cl)C(=O)C(OC)=C(OC)C1=O", "Class assignment": "inactive"}
{"Compound": "C[C@@H](NC(=O)/C(C#N)=C/c1ccc([N+](=O)[O-])cc1)c1ccccc1", "Class assignment": "inactive"}
{"Compound": "O=[N+]([O-])c1ccc(C2CC(c3ccccc3)=Nc3ccccc3S2)cc1 (stereo unspecified)", "Class assignment": "inactive"}
{"Compound": "NC1CCCCC1N.O=[Se]([O-])[O-].[Pt+4] (stereo unspecified)", "Class assignment": "inactive"}
{"Compound": "CCNC(=O)Nc1ccc(Oc2ccnc3ccc4c(ccn4C)c23)cc1", "Class assignment": "inactive"}
{"Compound": "COc1cc(C(=O)N2CCN(c3ccccc3)CC2)c2ccccc2n1", "Class assignment": "active"}
{"Compound": "CCOC(=O)Nc1nc2ccc(Br)cc2s1", "Class assignment": "inactive"}
{"Compound": "Cc1cc(Nc2ncc3c(n2)N(C)C(=O)N(c2cc(NC(=O)c4cccc(C(F)(F)F)c4)ccc2C)C3)n(C)n1", "Class assignment": "active"}
{"Compound": "CCCCCCCCCCCC(=O)N1CCN(C(C)=O)CC1", "Class assignment": "inactive"}
{"Compound": "C#CCN(Cc1nc2cc(C(F)(F)F)ccc2nc1-c1ccccc1)c1ccc(C)cc1", "Class assignment": "inactive"}
{"Compound": "C=C1C(=O)O[C@H]2C[C@@H]1CC/C(C)=C/CC/C(C)=C/CC[C@@]2(C)O", "Class assignment": "inactive"}

###

- Test system: HCT-15 colon
- Assay remarks: NCI tumour cell line growth inhibition, 48 h
Assay metric: GI50

{"Compound": "CN1CCC2(CC1)NC(=O)c1c(c3ccc(Cl)c(Cl)c3n1C)C2C#N (centres undefined)", "Assay metric": "GI50", "Result": "3.98 µM"}
{"Compound": "N/C(=N/N=C/c1ccccc1)N/N=C\\c1ccccc1", "Assay metric": "GI50", "Result": "3.72 µM"}
{"Compound": "COc1ccc2c(O)c(/C=C3\\N=Nc4ccccc43)oc2c1C[C@@H]1CCNC[C@H]1F", "Assay metric": "GI50", "Result": "14.2 µM"}
{"Compound": "O=c1[nH]c(=O)c2cc3cc(C4CC(O)C(CO)O4)ccc3cc2[nH]1 (centres undefined)", "Assay metric": "GI50", "Result": "> 100 µM"}

###

- System: PC-3 prostate
- Assay remarks: NCI tumour cell line growth inhibition, 48 h
Where a SMILES comes first, the peptide text is derived from it. [ ]: non-standard residue; d: D form. Phe(4-NO2) = N[CH](Cc1ccc([N+](=O)[O-])cc1)C(=O)O
Each entry below carries its recorded TGI.
Assay metric: TGI

{"Molecule": "O=C(/C=C/c1ccc(C(F)(F)F)cc1)c1c([O-])on[n+]1-c1ccccc1", "Assayed target": "PC-3 prostate", "Assay metric": "TGI", "Result": "9.2 µM"}
{"Molecule": "C/C(=N\\NC(=S)N(C)C)c1nc2ncccc2[nH]1", "Assayed target": "PC-3 prostate", "Assay metric": "TGI", "Result": "> 100 µM"}
{"Molecule": "Cn1cc(C2=C(c3c4n(c5ccccc35)CCC(CN)C4)C(=O)NC2=O)c2ccccc21 (stereo unspecified)", "Assayed target": "PC-3 prostate", "Assay metric": "TGI", "Result": "6.59 µM"}
{"Molecule": "CN(C)CCCNc1ncnc2c1ncn2C1OC(CO)C(O)C1O (stereo unspecified)", "Assayed target": "PC-3 prostate", "Assay metric": "TGI", "Result": "> 100 µM"}
{"Molecule": "Cn1nc(C(F)(F)F)cc1-c1c[nH]c(OCc2ccc(Cl)cc2)c(-c2ccc(Cl)c(C(F)(F)F)c2)c1=O", "Assayed target": "PC-3 prostate", "Assay metric": "TGI", "Result": "4.32 µM"}
{"Molecule": "CC(C)CC(=O)NC(C(=O)NC(C(=O)NC(CC(C)C)C(O)CC(=O)NC(C)C(=O)NC(CC(C)C)C(O)CC(=O)O)C(C)C)C(C)C (stereo unspecified)", "Assayed target": "PC-3 prostate", "Assay metric": "TGI", "Result": "> 100 µM"}
{"Molecule": "CCCCCCCCC/C(=N\\NC(=O)c1ccncc1)c1ccc(O)c(O)c1O", "Assayed target": "PC-3 prostate", "Assay metric": "TGI", "Result": "> 100 µM"}
{"Molecule": "COC(=O)C1=CO[C@@H](OC2OC(CO)C(O)C(O)C2O)[C@H]2[C@@H](C)[C@@H](O)[C@@H](O)[C@@H]12 (stereo partly specified)", "Assayed target": "PC-3 prostate", "Assay metric": "TGI", "Result": "> 100 µM"}
{"Molecule": "CN(C)CCCSc1nc2c(c(=N)n1-c1ccccc1)c(=S)n(-c1ccccc1)c(=S)n2-c1ccccc1", "Assayed target": "PC-3 prostate", "Assay metric": "TGI", "Result": "3.14 µM"}
{"Molecule": "C/C=C1\\CC2C(=O)CCC2C2c3ccccc3OC12 (stereo unspecified)", "Assayed target": "PC-3 prostate", "Assay metric": "TGI", "Result": "> 100 µM"}
{"Molecule": "CC(NC(=O)C(Cc1ccc([N+](=O)[O-])cc1)NC(=O)C(N)CCCCN)C(=O)NC(Cc1ccc([N+](=O)[O-])cc1)C(N)=O (stereo unspecified) (H-K[Phe(4-NO2)]A[Phe(4-NO2)]-NH2; configuration not given here)", "Assayed target": "PC-3 prostate", "Assay metric": "TGI", "Result": "> 100 µM"}

###

Each entry below carries its recorded TGI.
- Tested on: HT29 colon
- Assay remarks: NCI tumour cell line growth inhibition, 48 h
Assay metric: TGI

{"Compound": "N=N/C(=C\\c1c(O)[nH]c2ccccc12)c1ccccc1", "Assayed target": "HT29 colon", "Assay metric": "TGI", "Result": "44.9 µM"}
{"Compound": "CCCCC(C(=O)CCC(=O)Nc1ccc(Cl)c(Cl)c1)C(=O)C(C)C (stereo not given)", "Assayed target": "HT29 colon", "Assay metric": "TGI", "Result": "> 100 µM"}
{"Compound": "N#Cc1cc([N+](=O)[O-])ccc1NC(=O)/C(=N\\NC(=O)c1ccncc1)C(c1cnc2ccc([N+](=O)[O-])cc2n1)[N+](=O)[O-] (stereo not given)", "Assayed target": "HT29 colon", "Assay metric": "TGI", "Result": "41.8 µM"}
{"Compound": "CN(C)CCNC(=O)c1cccc2c(NC(CS)C(=O)O)c3ccccc3[n+](C)c12 (stereo not given)", "Assayed target": "HT29 colon", "Assay metric": "TGI", "Result": "> 100 µM"}
{"Compound": "CC1=NC2c3c(-c4ccc(Cl)cc4)cn(-c4ccc(C)cc4)c3N=CN2N1 (stereo not given)", "Assayed target": "HT29 colon", "Assay metric": "TGI", "Result": "> 100 µM"}
{"Compound": "CONC(C)=O", "Assayed target": "HT29 colon", "Assay metric": "TGI", "Result": "> 100 µM"}
{"Compound": "Clc1ccc(CCn2cncn2)cc1", "Assayed target": "HT29 colon", "Assay metric": "TGI", "Result": "> 100 µM"}
{"Compound": "COc1ccc(C(O)(c2ccccc2)c2nccc3ccccc23)cc1 (stereo not given)", "Assayed target": "HT29 colon", "Assay metric": "TGI", "Result": "> 100 µM"}
{"Compound": "O=C(CCCN1CCC2(CC1)CC(=O)N(N1CCOCC1)C2=O)c1ccc(F)cc1", "Assayed target": "HT29 colon", "Assay metric": "TGI", "Result": "> 100 µM"}
{"Compound": "C[C@@H]1CCC([C@@H](C)[C@H]2CC[C@H]3[C@@H]4CC[C@H]5C[C@@H](O)CC[C@]5(C)[C@H]4CC[C@]23C)=NC1", "Assayed target": "HT29 colon", "Assay metric": "TGI", "Result": "> 55.4 µM"}
{"Compound": "CCOC(=O)Nc1nc2ccc(Br)cc2s1", "Assayed target": "HT29 colon", "Assay metric": "TGI", "Result": "> 50 µM"}
{"Compound": "C=CCN1C[C@H](C)N([C@@H](c2ccc(C(=O)N3CCCCC3)cc2)c2cccc(OC)c2)C[C@H]1C", "Assayed target": "HT29 colon", "Assay metric": "TGI", "Result": "> 100 µM"}
{"Compound": "COc1ccc(Nc2cc(C)nc(NCc3ccccc3)n2)cc1", "Assayed target": "HT29 colon", "Assay metric": "TGI", "Result": "12.7 µM"}
{"Compound": "COc1cc(-c2oc3c(OC)cc(OC)c(O)c3c(=O)c2OC)cc(OC)c1OC", "Assayed target": "HT29 colon", "Assay metric": "TGI", "Result": "> 100 µM"}
{"Compound": "C/C(=N\\NC(=S)N(C)C)c1nc2ncccc2[nH]1", "Assayed target": "HT29 colon", "Assay metric": "TGI", "Result": "> 100 µM"}
{"Compound": "COc1ccc2cc(C(=O)/C=C/c3ccc(N(C)C)cc3)ccc2c1", "Assayed target": "HT29 colon", "Assay metric": "TGI", "Result": "> 100 µM"}
{"Compound": "CCCNCC(=O)O[C@]1(CC)C(=O)OCc2c1cc1n(c2=O)Cc2cc3ccccc3nc2-1", "Assayed target": "HT29 colon", "Assay metric": "TGI", "Result": "> 100 µM"}
{"Compound": "COc1ccc(-c2cc(-c3ccc(O)cc3O)c(C#N)c(=O)[nH]2)cc1", "Assayed target": "HT29 colon", "Assay metric": "TGI", "Result": "34.6 µM"}
{"Compound": "C/C(CC(=O)Nc1cc(C)ccc1C)=N/N=C(N)N", "Assayed target": "HT29 colon", "Assay metric": "TGI", "Result": "> 100 µM"}
{"Compound": "Cc1nc(-c2nc(-c3ccc(OC(F)(F)F)cc3)no2)nn1Cc1cccc(N2CCC(S(C)(=O)=O)CC2)c1", "Assayed target": "HT29 colon", "Assay metric": "TGI", "Result": "> 100 µM"}
{"Compound": "COc1ccc2c(c1)CC[C@@H]1[C@@H]2CC[C@]2(C)c3c(cc(C(=O)O)c4sccc34)C[C@@H]12", "Assayed target": "HT29 colon", "Assay metric": "TGI", "Result": "34 µM"}
{"Compound": "CCOC(=O)C(Cc1cn(C(C)=O)c2ccccc12)P(=O)(OCC)OCC (stereo not given)", "Assayed target": "HT29 colon", "Assay metric": "TGI", "Result": "> 100 µM"}
{"Compound": "O=C(O)CCc1nc2ccccc2[nH]1", "Assayed target": "HT29 colon", "Assay metric": "TGI", "Result": "> 100 µM"}
{"Compound": "Cc1ccc2c(c1)c(Sc1ccc(C(=O)NO)cc1)c1n2CN(C)CC1", "Assayed target": "HT29 colon", "Assay metric": "TGI", "Result": "8.38 µM"}
{"Compound": "CC1=NN(c2ccc(S(=O)(=O)O)cc2)C(=O)/C1=C/c1ccc(Cl)cc1", "Assayed target": "HT29 colon", "Assay metric": "TGI", "Result": "> 100 µM"}
{"Compound": "CC/C(=C(/c1ccc(O)cc1)c1ccc(OCCN)cc1)c1ccccc1", "Assayed target": "HT29 colon", "Assay metric": "TGI", "Result": "5.78 µM"}
{"Compound": "C#CCN(Cc1nc2cc(C(F)(F)F)ccc2nc1-c1ccccc1)c1ccc(C)cc1", "Assayed target": "HT29 colon", "Assay metric": "TGI", "Result": "> 32 µM"}
{"Compound": "O=c1/c(=C/c2ccc([N+](=O)[O-])o2)sc2n1[C@@H](c1ccc(Cl)cc1)C=C(c1cc(F)c(Cl)cc1Cl)N=2", "Assayed target": "HT29 colon", "Assay metric": "TGI", "Result": "23.2 µM"}
{"Compound": "N#Cc1ccc(N2CCOCC2)cc1", "Assayed target": "HT29 colon", "Assay metric": "TGI", "Result": "> 100 µM"}
{"Compound": "O=C(O)c1cc(=O)c2c(OCC(O)COc3cccc4oc(C(=O)O)cc(=O)c34)cccc2o1", "Assayed target": "HT29 colon", "Assay metric": "TGI", "Result": "> 100 µM"}
